- ASSAY_METHOD_TEXT: OD615 S. cerevisiae growth inhibition, permissive medium, pilot counter-assay, permissive growth control for S. cerevisiae lifespan shortening project (AID 705)
- STATED_CONDITIONS: OD615, 24 h, at 10 µM, stronger effect = higher value
For each of the molecules below, state its growth inhibition.
Numbers only, in %.

These solved cases illustrate the format of a correct answer.
- Cc1cc(C)n2c(SCC#N)nnc2n1: -13.1
- CCSc1sccc1C1C(C#N)=C(N)N(c2cccnc2)C2=C1C(=O)CC(C)(C)C2 (stereo unspecified): -14.3
- COc1ccc(S(=O)(=O)Cc2ccc(C(=O)N3CCN(C(=O)c4ccco4)CC3)o2)cc1: 0.785
- Cc1ccc(N(CC(=O)Nc2ccc(S(=O)(=O)N3CCOCC3)cc2)S(C)(=O)=O)cc1C: -6.29
- CC(C)(C)NC(=O)c1ccc(NC(=O)C2COc3ccccc3O2)cc1 (stereo unspecified): -6.05
- CCCCNC(=O)CS(=O)Cc1nc(-c2cccs2)oc1C (stereo unspecified): -3.47
- COc1cc(C(=O)NCC(c2ccco2)N2CCCC2)ccc1OCc1c(C)noc1C (stereo unspecified): 0.045
- O=C1C=C(NCc2ccco2)CC(c2ccc(Cl)cc2)C1 (stereo unspecified): -7.5
- O=S(=O)(Nc1nnc(-c2ccccc2)s1)c1ccc(Cl)cc1: 4.67
- COc1ccc(N2CCN(CCNC(=O)c3ccc(NC(=O)C4CCCO4)cc3)CC2)cc1 (stereo unspecified): -14

Let us move to another entry and its growth inhibition.
Ask: Which growth inhibition value is on record for `CCOC(=O)c1c(N)sc2c(OC)c(Br)ccc12` ?
Result: 21.3
